Below, each entry is listed alongside its reported pIC50.
System: Phosphorylation of ERK1/2 in MIA PaCa-2 cells
Assay: Phospho-ERK1/2 MSD assay in MIA PaCa-2 cells
Format: cell-based
Details: Homo sapiens, MIA PaCa-2, 4 h, read-out: p-ERK IC50 (4 h; MIA PaCa-2), 4 h compound treatment
Note on units: pIC50 is unitless, being -log10 of a concentration expressed in mol/L.

Some solved cases for reference:
COMPOUND	EXPERIMENTAL_TARGET	VALUE_REPORTED
C=CC(=O)N1CCN(c2nc(=O)n(-c3c(CC)cccc3CC)c3nc(-c4c(F)cccc4F)c(Cl)cc23)[C@@H](C)C1 [Example 54-65]	Phosphorylation of ERK1/2 in MIA PaCa-2 cells	6.88
C=CC(=O)N1CCN(c2nc(=O)n(CC3(C(F)(F)F)CC3)c3nc(-c4c(O)cccc4F)c(Cl)cc23)CC1 [Example 60-3]	Phosphorylation of ERK1/2 in MIA PaCa-2 cells	6.26

Reported pIC50 of C=CC(=O)N1CCN(c2nc(=O)n(-c3ccccc3C(C)C)c3nc(Oc4cccc(F)c4)c(Cl)cc23)CC1 [Example 60-23] : 5.35
